TARGET SYSTEM: human α1H T-type channels (Homo sapiens, UniProt O95180)
Construct: expressed in transfected cells; host or cells: HEK 293
Sequence (O95180 whole entry): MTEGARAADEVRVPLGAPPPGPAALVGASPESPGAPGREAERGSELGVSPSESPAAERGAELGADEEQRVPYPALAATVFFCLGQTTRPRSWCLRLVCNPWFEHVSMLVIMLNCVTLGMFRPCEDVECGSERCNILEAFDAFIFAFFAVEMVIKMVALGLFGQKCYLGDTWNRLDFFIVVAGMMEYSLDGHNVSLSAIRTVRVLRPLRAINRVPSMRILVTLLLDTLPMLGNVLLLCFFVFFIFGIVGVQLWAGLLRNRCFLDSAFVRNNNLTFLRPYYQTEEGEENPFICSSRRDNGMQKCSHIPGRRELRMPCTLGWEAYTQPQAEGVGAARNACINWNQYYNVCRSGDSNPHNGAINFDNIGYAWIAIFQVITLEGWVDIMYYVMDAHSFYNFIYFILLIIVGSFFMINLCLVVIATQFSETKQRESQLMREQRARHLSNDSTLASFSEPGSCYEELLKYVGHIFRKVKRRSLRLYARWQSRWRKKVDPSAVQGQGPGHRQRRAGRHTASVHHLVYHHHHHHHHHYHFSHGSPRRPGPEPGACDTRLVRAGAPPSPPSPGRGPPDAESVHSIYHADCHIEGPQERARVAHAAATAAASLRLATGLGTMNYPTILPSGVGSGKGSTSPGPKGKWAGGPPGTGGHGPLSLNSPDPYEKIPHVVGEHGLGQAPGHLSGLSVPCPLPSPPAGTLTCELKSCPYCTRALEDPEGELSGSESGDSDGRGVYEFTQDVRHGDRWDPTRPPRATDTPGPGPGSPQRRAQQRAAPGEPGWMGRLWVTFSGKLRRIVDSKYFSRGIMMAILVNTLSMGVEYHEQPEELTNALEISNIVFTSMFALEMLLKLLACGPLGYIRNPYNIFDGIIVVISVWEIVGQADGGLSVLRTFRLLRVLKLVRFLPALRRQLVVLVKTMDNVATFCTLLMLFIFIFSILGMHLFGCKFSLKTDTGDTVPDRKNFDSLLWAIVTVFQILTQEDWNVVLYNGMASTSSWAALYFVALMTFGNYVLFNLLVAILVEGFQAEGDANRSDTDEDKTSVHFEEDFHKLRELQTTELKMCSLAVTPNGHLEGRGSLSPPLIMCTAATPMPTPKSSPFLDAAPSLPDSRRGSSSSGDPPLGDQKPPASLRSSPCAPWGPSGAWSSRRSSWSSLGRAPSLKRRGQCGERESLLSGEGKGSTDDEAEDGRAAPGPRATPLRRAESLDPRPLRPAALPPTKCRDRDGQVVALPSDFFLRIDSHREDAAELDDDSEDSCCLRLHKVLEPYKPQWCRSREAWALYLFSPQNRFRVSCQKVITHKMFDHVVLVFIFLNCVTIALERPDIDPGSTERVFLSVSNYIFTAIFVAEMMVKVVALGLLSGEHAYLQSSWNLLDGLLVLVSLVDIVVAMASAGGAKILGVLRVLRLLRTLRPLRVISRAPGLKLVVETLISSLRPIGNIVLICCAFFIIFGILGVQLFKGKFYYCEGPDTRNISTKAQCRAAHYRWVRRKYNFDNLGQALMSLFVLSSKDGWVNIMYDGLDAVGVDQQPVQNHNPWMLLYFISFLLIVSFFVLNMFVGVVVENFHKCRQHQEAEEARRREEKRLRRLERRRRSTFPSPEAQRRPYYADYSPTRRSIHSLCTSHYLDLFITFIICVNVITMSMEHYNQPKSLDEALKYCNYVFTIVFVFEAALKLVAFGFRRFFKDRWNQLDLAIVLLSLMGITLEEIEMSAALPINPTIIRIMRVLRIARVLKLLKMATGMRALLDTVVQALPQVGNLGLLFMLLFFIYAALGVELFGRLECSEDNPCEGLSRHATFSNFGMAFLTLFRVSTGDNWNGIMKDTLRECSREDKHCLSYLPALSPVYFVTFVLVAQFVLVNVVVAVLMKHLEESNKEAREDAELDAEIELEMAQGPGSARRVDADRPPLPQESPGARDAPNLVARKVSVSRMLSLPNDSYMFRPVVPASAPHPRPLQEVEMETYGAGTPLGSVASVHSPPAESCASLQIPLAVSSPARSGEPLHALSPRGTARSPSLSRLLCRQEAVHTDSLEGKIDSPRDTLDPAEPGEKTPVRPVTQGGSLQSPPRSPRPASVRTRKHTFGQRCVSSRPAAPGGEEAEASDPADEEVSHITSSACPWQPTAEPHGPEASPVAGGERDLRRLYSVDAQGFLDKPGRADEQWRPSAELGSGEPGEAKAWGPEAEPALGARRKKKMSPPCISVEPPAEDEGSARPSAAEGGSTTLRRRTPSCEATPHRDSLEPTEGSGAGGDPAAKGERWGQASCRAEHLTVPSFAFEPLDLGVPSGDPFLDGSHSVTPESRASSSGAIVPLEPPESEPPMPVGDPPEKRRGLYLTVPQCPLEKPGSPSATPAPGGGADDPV
EXPERIMENT DESCRIPTION: T-type calcium channel block, whole cell patch clamp in HEK cells
Type: cell-based
RECORDED CONDITIONS: measured at 1 μM drug, mainly non-inactivated protocol
pKd: −log10 of the molar value.

{"columns": ["MOLECULE", "pKd"],
 "data": [
  ["O=C(/C=C\\c1ccccc1)NC1(C(=O)Nc2cc(C(F)(F)F)cc(C(F)(F)F)c2)CCNCC1 [Compound 40]", 5.62],
  ["CN1CCC(NC(=O)/C=C/c2ccc(F)cc2)(C(=O)Nc2cc(C(F)(F)F)cc(C(F)(F)F)c2)CC1 [Compound 42]", 4.38],
  ["O=C(/C=C/c1ccc(F)cc1)NC1(C(=O)Nc2cc(Cl)cc(Cl)c2)CCNCC1 [Compound 44]", 5.79],
  ["O=C(/C=C/c1ccc(F)c(F)c1)NC1(C(=O)Nc2ccccc2Oc2ccccc2)CCNCC1 [Compound 50]", 5.53],
  ["O=C(/C=C/c1ccc(F)cc1)NC1(C(=O)Nc2cc(C(F)(F)F)cc(C(F)(F)F)c2)CCNCC1 [Compound 32]", 6.38],
  ["NCC(=O)N1CCC(NC(=O)/C=C/c2ccc(F)c(Br)c2)(C(=O)NCCc2c[nH]c3ccc(F)cc23)CC1 [Compound 24]", 5.84],
  ["O=C(/C=C/c1ccc(F)c(Br)c1)N[C@H](C(=O)NCCc1c[nH]c2ccc(F)cc12)c1ccccc1 [Compound 17]", 6.03],
  ["O=C(/C=C/c1ccc(F)c(Br)c1)NC1(C(=O)NCCc2c[nH]c3ccccc23)CCNCC1 [Compound 2]", 6.39],
  ["O=C(/C=C/c1ccc(F)c(Br)c1)NC1(C(=O)NCCc2c[nH]c3ccc(F)cc23)CCCCC1 [Compound 12]", 5.74],
  ["CN1CCC(NC(=O)/C=C/c2ccc(F)c(Br)c2)(C(=O)NCCc2c[nH]c3ccc(F)cc23)CC1 [Compound 22]", 6.31],
  ["O=C(/C=C/c1ccc(F)c(Br)c1)NC1(C(=O)NCCc2c[nH]c3ccc(F)cc23)CCCC1 [Compound 13]", 5.75],
  ["O=C(/C=C/c1ccc(F)c(F)c1)NC1(C(=O)NCCc2c[nH]c3ccc(F)cc23)CCNCC1 [Compound 7]", 3.86],
  ["O=C(/C=C/c1ccc(F)c(Br)c1)NC1(C(=O)NCCc2c[nH]c3ccc(F)cc23)CCN(C(=O)C(F)(F)F)CC1 [Compound 27]", 6.08],
  ["O=C(/C=C/c1ccc(F)cc1)NC1(C(=O)Nc2cc(C(F)(F)F)cc(C(F)(F)F)c2)CCN(C2CCOCC2)CC1 [Compound 54]", 5.20],
  ["Cc1cc(/C=C/C(=O)NC2(C(=O)Nc3cc(C(F)(F)F)cc(C(F)(F)F)c3)CCN(C)CC2)ccc1F [Compound 43]", 5.95],
  ["O=C(/C=C/c1ccc(F)c(Br)c1)NC1(C(=O)NCCc2c[nH]c3ccc(F)cc23)CCNCC1 [Compound 1]", 6.33],
  ["O=C(/C=C/c1ccc(F)c(Br)c1)NC1(C(=O)NCCc2c[nH]c3ccc(F)cc23)CC1 [Compound 14]", 4.92]
]}
